assay: Metabolic stability in rat liver microsomes; format: in vitro ADME, SD Rat; conditions: rat liver microsomes
endpoint_name: metabolic stability in liver microsomes of rat (in words)

structure | assay_value
Cn1cc(-c2cccc(NC(=O)c3cc4oc(N5CCOCC5)nc4nc3N3CCC(O)CC3)n2)cn1 | good metabolic stability
Cn1cc(-c2cccc(NC(=O)c3cc4oc(N5CCOCC5)nc4nc3N3CC[C@@H](O)C3)n2)cn1 | good metabolic stability
Cn1cc(-c2cccc(NC(=O)c3cc4c(nc3N3CCC(O)CC3)OC(C)(C)C4)n2)cn1 | good metabolic stability

* * *

experiment: Metabolic stability in human liver microsomes; assay type: in vitro ADME
endpoint_name: metabolic stability in liver microsomes of human (in words)

structure | assay_value
Cn1cc(-c2cccc(NC(=O)c3cc4c(nc3N3CCC(O)CC3)OC(C)(C)C4)n2)cn1 | good metabolic stability
Cn1cc(-c2cccc(NC(=O)c3cc4oc(N5CCOCC5)nc4nc3N3CCC(O)CC3)n2)cn1 | good metabolic stability
Cn1cc(-c2cccc(NC(=O)c3cc4oc(N5CCOCC5)nc4nc3N3CC[C@@H](O)C3)n2)cn1 | good metabolic stability

From: patent US20250074919A1
